# Tested on: Mycobacterium tuberculosis Erdman (pMV306hsp+LuxG13)
# method.notes: GRinf, normalised growth-rate inhibition at infinite dose (GR value (unitless, negative = killing)); higher = less potent
# reported.conditions: growth medium: cholesterol 0.2 mM (cholesterol-high); time point: terminal time point
molecules and their reported GRinf
Answer with a number only.

Use the examples below as a reference point.
[[record]]
molecule = "NC(=O)c1cnccn1 [pyrazinamide] + CC(=O)NC[C@H]1CN(c2ccc(N3CCSCC3)c(F)c2)C(=O)O1 [sutezolid]"
measured_target = "Mycobacterium tuberculosis Erdman (pMV306hsp+LuxG13)"
recorded_value = -0.929

[[record]]
molecule = "NNC(=O)c1ccncc1 [isoniazid] + CC(=O)NC[C@H]1CN(c2ccc(N3CCSCC3)c(F)c2)C(=O)O1 [sutezolid]"
measured_target = "Mycobacterium tuberculosis Erdman (pMV306hsp+LuxG13)"
recorded_value = -0.942


Dear colleague, I am looking for the recorded GRinf of the following molecule: CC[C@@H](CO)NCCN[C@@H](CC)CO [ethambutol] + CC(=O)NC[C@H]1CN(c2ccc(N3CCSCC3)c(F)c2)C(=O)O1 [sutezolid] -0.852
